target: KRas WT (Homo sapiens); construct: Biotinylated KRas (corresponding to amino acids 1-169, produced at Accelegan Inc.); biotin (biotinylated); purchased Accelegan Inc; assay: KRas binding assay, TR-FRET displacement of Cy5 labelled tracer; settings: 60-minute incubation at room temperature, 1% DMSO, pH 7.5
Sequence (P01116 1-169 isoform P01116-2): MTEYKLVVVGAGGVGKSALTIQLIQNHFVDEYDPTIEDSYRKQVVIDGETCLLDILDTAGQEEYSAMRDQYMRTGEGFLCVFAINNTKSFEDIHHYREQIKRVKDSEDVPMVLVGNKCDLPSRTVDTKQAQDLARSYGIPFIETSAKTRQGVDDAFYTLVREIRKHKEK
Classify: satisfied when IC50 is strictly less than 80 nM; not satisfied when IC50 is not.

• C=Cc1ccn(C(=O)C2CCN(c3nc(OC[C@@]45CCCN4C[C@H](F)C5)nc4c(F)c(-c5cc(O)cc6ccc(F)c(CC)c56)ncc34)CC2)n1 [Example 66] = not satisfied
• N#Cc1c(N)sc2c(F)ccc(-c3c(Cl)cc4c(N5CCN(C(=O)n6ccnc6)CC5)nc(OC[C@@]56CCCN5C[C@H](F)C6)nc4c3F)c12 [Example 231] = satisfied
• CCc1c(F)ccc2cc(O)cc(-c3ncc4c(N5CCC(OC)(C(=O)n6ccc(C)n6)CC5)nc(OC[C@@]56CCCN5C[C@H](F)C6)nc4c3F)c12 [Example 88] = not satisfied
• N#Cc1c(N)sc2c(F)ccc(-c3c(Cl)cc4c(N5CCN(S(=O)(=O)n6cnnc6)CC5)nc(OC[C@@]56CCCN5C[C@H](F)C6)nc4c3F)c12 [Example 187] = satisfied
• CCc1c(F)ccc2cc(O)cc(-c3ncc4c(N5CC6CCC(C(=O)n7ccc(C)n7)(C6)C5)nc(OC[C@@]56CCCN5C[C@H](F)C6)nc4c3F)c12 (some centres unmarked) [Example 106] = satisfied
• CCc1c(F)ccc2cc(O)cc(-c3ncc4c(N5CCC(C(=O)N(C)c6ccccn6)CC5)nc(OC[C@@]56CCCN5C[C@H](F)C6)nc4c3F)c12 [Example 62] = satisfied
• CN(CCCC(=O)Oc1cccc(F)c1)c1nc(OC[C@@]23CCCN2C[C@H](F)C3)nc2c(F)c(-c3ccc(F)c4sc(N)c(C#N)c34)c(Cl)cc12 [Example 198] = satisfied
• N#Cc1c(N)sc2c(F)ccc(-c3c(Cl)cc4c(N5CCC(C(=O)Oc6ccc(Cl)cc6)CC5)nc(OC[C@@]56CCCN5C[C@H](F)C6)nc4c3F)c12 [Example 301] = not satisfied
• CCc1c(F)ccc2cc(O)cc(-c3ncc4c(N5C[C@H]6C[C@@H](C(=O)n7ccc(C)n7)[C@H]6C5)nc(OC[C@@]56CCCN5C[C@H](F)C6)nc4c3F)c12 [Example 210] = not satisfied
• Cc1ccn(C(=O)C2CCCN(c3nc(OC[C@@]45CCCN4C[C@H](F)C5)nc4c(F)c(-c5ccc(F)c6sc(N)c(C#N)c56)c(Cl)cc34)C2)n1 (some centres unmarked) [Example 132] = satisfied
• CCc1c(F)ccc2cc(O)cc(-c3ncc4c(N5CCC(C(=O)N(C)C(=O)C(C)C)CC5)nc(OC[C@@]56CCCN5C[C@H](F)C6)nc4c3F)c12 [Example 166] = not satisfied

###

IC50 reference
target: KRas-mediated phosphorylation of ERK in H358 cells (Homo sapiens, UniProt P01116, G12C); construct: pERK HTRF read-out; test: Inhibition of KRas-mediated phosphorylation of ERK (HTRF), H358 cells; assay type: cell-based; conditions: HTRF pERK, 3 h incubation
Sequence (P01116 1-188 isoform P01116-2 G12C): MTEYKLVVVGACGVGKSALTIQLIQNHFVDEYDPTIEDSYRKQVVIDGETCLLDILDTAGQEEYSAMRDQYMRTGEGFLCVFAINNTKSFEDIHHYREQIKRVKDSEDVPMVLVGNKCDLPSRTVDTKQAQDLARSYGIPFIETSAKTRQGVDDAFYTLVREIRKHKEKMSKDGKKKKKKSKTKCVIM
readoutLabel: IC50 (nM)

- N#Cc1c(N)sc2c(F)ccc(-c3c(Cl)cc4c(N5CCC(C(=O)Oc6ccc(Cl)cc6)CC5)nc(OC[C@@]56CCCN5C[C@H](F)C6)nc4c3F)c12: 20
- CCc1c(F)ccc2cc(O)cc(-c3ncc4c(N(C)CCCC(=O)n5ccc(C)n5)nc(OC[C@@]56CCCN5C[C@H](F)C6)nc4c3F)c12: 91
- N#Cc1c(N)sc2c(F)ccc(-c3c(Cl)cc4c(N5CCC(C(=O)N6CCOCC6)CC5)nc(OC[C@@]56CCCN5C[C@H](F)C6)nc4c3F)c12: 163
- CCc1c(F)ccc2cc(O)cc(N3CCc4c(nc(OC[C@@]56CCCN5C[C@H](F)C6)nc4N4CCCCCC(C(=O)n5ccc(C)n5)C4)C3)c12 (stereo partly shown): 160
- CC(=O)N(C)C(=O)CCCNc1nc(OC[C@@]23CCCN2C[C@H](F)C3)nc2c(F)c(-c3ccc(F)c4sc(N)c(C#N)c34)c(Cl)cc12: 38
- CCc1c(F)ccc2cc(O)cc(-c3ncc4c(NCC5CC(C(=O)N(C)C(C)=O)C5)nc(OC[C@@]56CCCN5C[C@H](F)C6)nc4c3F)c12 (stereo partly shown): 428
- CCc1c(F)ccc2cc(O)cc(-c3ncc4c(N5CCCC(C(=O)n6ccc(C)n6)CCC5)nc(OC[C@@]56CCCN5C[C@H](F)C6)nc4c3F)c12: 1420
- CCc1c(F)ccc2cc(O)cc(-c3ncc4c(N5CCCC(C(=O)n6ccc(C)n6)C5)nc(OC[C@@]56CCCN5C[C@H](F)C6)nc4c3F)c12 (stereo partly shown): 415
- Cc1ccn(C(=O)CCNc2nc(OC[C@@]34CCCN3C[C@H](F)C4)nc3c(F)c(-c4ccc(F)c5sc(N)c(C#N)c45)c(Cl)cc23)n1: 1110
- N#Cc1c(N)sc2c(F)ccc(-c3c(Cl)cc4c(N5CCN(C(=O)n6ccnn6)CC5)nc(OC[C@@]56CCCN5C[C@H](F)C6)nc4c3F)c12: 1
- CCc1c(F)ccc2cc(O)cc(-c3ncc4c(N5CCC(C(=O)N(C)C(C)=O)C5)nc(OC[C@@]56CCCN5C[C@H](F)C6)nc4c3F)c12 (stereo partly shown): 662
- CCN(C(C)=O)C(=O)CCCN(C)c1nc(OC[C@@]23CCCN2C[C@H](F)C3)nc2c(F)c(-c3ccc(F)c4sc(N)c(C#N)c34)c(Cl)cc12: 81
- CCc1c(F)ccc2cc(O)cc(-c3ncc4c(N5CC[C@@H](C(=O)n6ccc(C)n6)[C@H](C)C5)nc(OC[C@@]56CCCN5C[C@H](F)C6)nc4c3F)c12: 930
- CCc1c(F)ccc2cc(O)cc(-c3ncc4c(N5C[C@H]6C[C@@H](C(=O)n7ccc(C)n7)C[C@H]6C5)nc(OC[C@@]56CCCN5C[C@H](F)C6)nc4c3F)c12: 1540
- N#Cc1c(N)sc2c(F)ccc(-c3c(Cl)cc4c(N5CCC(C(=O)n6cccn6)CC5)nc(OC[C@@]56CCCN5C[C@H](F)C6)nc4c3F)c12: 26
- CCc1c(F)ccc2cc(O)cc(-c3ncc4c(N5CCC(C)(C(=O)n6ccc(C)n6)CC5)nc(OC[C@@]56CCCN5C[C@H](F)C6)nc4c3F)c12: 1410
- CCc1c(F)ccc2cc(O)cc(-c3ncc4c(N5C[C@@H](C)N(C(=O)n6ccc(C)n6)[C@@H](C)C5)nc(OC[C@@]56CCCN5C[C@H](F)C6)nc4c3F)c12: 2160
- N#Cc1c(N)sc2c(F)ccc(-c3c(Cl)cc4c(N5CCC(C(=O)Oc6cccc(F)c6)CC5)nc(OC[C@@]56CCCN5C[C@H](F)C6)nc4c3F)c12: 18
- CN(C(=O)C1CCN(c2nc(OC[C@@]34CCCN3C[C@H](F)C4)nc3c(F)c(-c4ccc(F)c5sc(N)c(C#N)c45)c(Cl)cc23)CC1)c1ccncn1: 29
- N#Cc1c(N)sc2c(F)ccc(-c3c(Cl)cc4c(N5CCN(C(=O)n6nccn6)CC5)nc(OC[C@@]56CCCN5C[C@H](F)C6)nc4c3F)c12: 1
- CCc1c(F)ccc2cc(O)cc(-c3ncc4c(N5CCN(C(=O)n6ccc(C)n6)C(CF)C5)nc(OC[C@@]56CCCN5C[C@H](F)C6)nc4c3F)c12 (stereo partly shown): 264

###

target: KRas-mediated phosphorylation of ERK in H358 cells (Homo sapiens, UniProt P01116, G12C); construct: pERK HTRF read-out; experiment: Inhibition of KRas-mediated phosphorylation of ERK (HTRF), H358 cells; type: cell-based; conditions: HTRF pERK, 3 h incubation
readoutLabel: IC50 (nM)

* CCc1c(F)ccc2cc(O)cc(-c3ncc4c(NC[C@H]5C[C@@H]5C(=O)n5ccc(C)n5)nc(OC[C@@]56CCCN5C[C@H](F)C6)nc4c3F)c12 | 108
* CCc1c(F)ccc2cc(O)cc(-c3ncc4c(N5CCN(C(=O)n6cccn6)CC5)nc(OC[C@@]56CCCN5C[C@H](F)C6)nc4c3F)c12 | 450
* CCc1c(F)ccc2cc(O)cc(-c3ncc4c(NCCCC(=O)N(C)C(C)=O)nc(OC[C@@]56CCCN5C[C@H](F)C6)nc4c3F)c12 | 159

###

target: KRas-mediated phosphorylation of ERK in MKN1 cells (Homo sapiens, UniProt P01116); construct: pERK HTRF read-out; experiment: Inhibition of KRas-mediated phosphorylation of ERK (HTRF), MKN1 cells; type: cell-based; conditions: MKN1 cells (KRas WT); HTRF pERK; 3 h incubation
Sequence (P01116 1-188 isoform P01116-2): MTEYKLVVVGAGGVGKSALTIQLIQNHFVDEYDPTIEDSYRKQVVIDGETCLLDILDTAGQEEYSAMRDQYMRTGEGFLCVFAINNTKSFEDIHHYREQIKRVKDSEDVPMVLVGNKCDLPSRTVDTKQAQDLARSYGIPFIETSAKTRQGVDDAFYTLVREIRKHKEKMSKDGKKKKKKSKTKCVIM
Classify: fulfilled when IC50 is strictly less than 300 nM; not fulfilled when IC50 is not.

• CCc1c(F)ccc2cc(O)cc(-c3ncc4c(N(C)CCCC(=O)N(C)C(C)=O)nc(OC[C@@]56CCCN5C[C@@]5(CC5(F)F)C6)nc4c3F)c12 = not fulfilled
• N#Cc1c(N)sc2c(F)ccc(-c3c(Cl)cc4c(N5CCC(C(=O)N6C7CCC6COC7)CC5)nc(OC[C@@]56CCCN5C[C@H](F)C6)nc4c3F)c12 = fulfilled
• CCc1c(F)ccc2cc(O)cc(-c3ncc4c(N5CCCC(C(=O)n6ccc(C)n6)CC5)nc(OC[C@@]56CCCN5C[C@H](F)C6)nc4c3F)c12 (stereo partly drawn) = not fulfilled
• N#Cc1c(N)sc2c(F)ccc(-c3c(Cl)cc4c(N5CCN(S(=O)(=O)n6nccn6)CC5)nc(OC[C@@]56CCCN5C[C@H](F)C6)nc4c3F)c12 = not fulfilled
• CCc1c(F)ccc2cc(O)cc(-c3ncc4c(N5CCCCCC(C(=O)n6ccc(C)n6)C5)nc(OC[C@@]56CCCN5C[C@H](F)C6)nc4c3F)c12 (stereo partly drawn) = fulfilled
• CCc1c(F)ccc2cc(O)cc(-c3ncc4c(N5CCC(C(=O)n6nc(C)c(C)c6C)CC5)nc(OC[C@@]56CCCN5C[C@H](F)C6)nc4c3F)c12 = not fulfilled
